B1: NEK9 peptide 738-753 (Serine/threonine-protein kinase Nek9), 16-mer library wild type / NSP9 (ORF1ab Nsp9, residues 4141-4253) (parent)
chain 1: SGLSIGTVFQSSSPGG
chain 2: NNELSPVALRQMSCAAGTTQTACTDDNALAYYNTTKGGRFVLALLSDLQDLKWARFPKSDGTGTIYTELEPPCRFVTDTPKGPKVKYLYFIKGLNNLNRGMVLGSLAATVRLQ

Variants of: B1
Conditions Used: with NSP9 (ORF1ab Nsp9, residues 4141-4253); bait immobilised on MaxiSorp plates (10 µg), library pre-cleared on GST, 2 h binding at 4 °C, five washes; one round per day, days 1-4; value from days 2 and 3; keep out of graded; scale: average fractional NGS count over selection days 2 and 3
Endpoint Label: screen value
API note: the answer field is a bare number with no unit suffix.

Some solved cases for reference:
Mutations | Endpoint Value
chain 1 L3W | 0
chain 1 S13Q | 0
chain 1 S13N | 2.85e-05
chain 1 G15E | 0
chain 1 V8E | 2.09e-05
chain 1 V8A | 3.17e-05
chain 1 Q10I | 0
chain 1 G15V | 0.000116
chain 1 S4Y | 0
chain 1 G15A | 0

### Prompt screen value for chain 1 L3V ?
### Response 0.000196

### Prompt Note, next up: chain 1 S12E
### Response 0

### Prompt Note, next up: chain 1 S1L
### Response 0

### Prompt Note, next up: chain 1 F9T
### Response 0

### Prompt Note, next up: chain 1 G15D
### Response 0

### Prompt Note, next up: chain 1 T7S
### Response 0

### Prompt Note, next up: chain 1 V8H
### Response 0.000119

### Prompt Note, next up: chain 1 S1H
### Response 0

### Prompt Note, next up: chain 1 S4P
### Response 0

### Prompt Note, next up: chain 1 F9E
### Response 0.000224

### Prompt Note, next up: chain 1 V8K
### Response 0

### Prompt Note, next up: chain 1 T7Q
### Response 0

Entry source: paper PMC12102759
